Hello, the source for this data is patent US20100249123A1, in case you need it.

The entries below are paired with their reported melting point.

INPUT SMILES	melting point
COc1ccc(C(=O)Nc2ccc(C(C)(C)C#N)c(-c3cccc(Cl)c3)c2)cc1OC	144 to 146 °C
COc1ccc(C(=O)Nc2ccc(C(C)(C)C#N)cc2)cc1OC	139 to 141 °C
COc1ccc(C(=O)Nc2ccc(C(C)(C)CNC(=O)c3nc4ccccc4[nH]3)cc2)cc1OC	223 to 226 °C
COc1ccc(C(=O)Nc2ccc(C(C)(C)C#N)c(-c3ccncc3)c2)cc1OC	196 to 199 °C
COc1ccc(C(=O)Nc2ccc(C(C)(C)C#N)c(-c3cncnc3)c2)cc1OC	198 to 200 °C
COC(=O)NCC(C)(C)c1ccc(NC(=O)c2ccc(OC)c(OC)c2)cc1	67 to 69 °C
COc1ccc(C(=O)Nc2ccc(C(C)(C)CNC(C)=O)cc2)cc1OC	195 to 197 °C
COc1cc(C(C)(C)C#N)ccc1NC(=O)c1ccc(OC)c(OC)c1	110 to 112 °C
COc1ccc(C(=O)Nc2ccc(C(C)(C)CN3CCOC3=O)cc2)cc1OC	190 to 191 °C
COc1ccc(C(=O)Nc2ccc(C(C)(C)C(N)=O)cc2)cc1OC	193 to 195 °C
COc1ccc(C(=O)Nc2cccc(C(C)(C)CNC(C)=O)c2)cc1OC	132 to 134 °C
COc1ccc(C(=O)Nc2ccc(C(C)(C)CNC(C)=O)c(F)c2)cc1OC	186 to 188 °C
